All values here come from patent US5128346A.

Target: Type-B CCK receptor (Cavia porcellus)
Construct: cortex and pancreas were removed and rinsed with ice cold saline; from tissue; host or cells: guinea pig cerebral cortex, membranes
Sequence (H0VZC5 1-426): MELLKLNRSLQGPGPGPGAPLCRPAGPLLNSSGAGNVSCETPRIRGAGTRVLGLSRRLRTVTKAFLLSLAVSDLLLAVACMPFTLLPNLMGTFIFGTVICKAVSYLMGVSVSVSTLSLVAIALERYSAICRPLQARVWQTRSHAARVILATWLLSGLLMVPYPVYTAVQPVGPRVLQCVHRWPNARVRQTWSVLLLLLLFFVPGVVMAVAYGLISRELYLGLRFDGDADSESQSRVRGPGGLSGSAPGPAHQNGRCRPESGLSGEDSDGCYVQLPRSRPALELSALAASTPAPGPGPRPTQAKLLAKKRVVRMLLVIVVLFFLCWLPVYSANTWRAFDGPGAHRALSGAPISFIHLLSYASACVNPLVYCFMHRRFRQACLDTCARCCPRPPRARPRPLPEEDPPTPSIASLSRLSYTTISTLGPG
Experiment: Radioligand binding, [^125 I]-BH-CCK8, Type-B CCK receptor (cerebral cortical membranes)
Set-up: species or system guinea pig
Settings: guinea pig cerebral cortical membranes, 30° C., 150 min; IC50 from Hill analysis
Property measured: IC50 (nM)
Supply the numeric figure in nM, leaving out any unit text.

Would you mind telling me what IC50 value was observed for `CCOC(=O)CN(CC(=O)OCC)C(=O)[C@@H](CCC(=O)O)NC(=O)c1cc(O)c2cccc(O)c2n1` ?
620

====

Assignment: determine reported IC50 for the given molecules.
Target: Type-A CCK receptor (Cavia porcellus, UniProt Q63931)
Construct: cortex and pancreas were removed and rinsed with ice cold saline; from tissue; host or cells: guinea pig pancreas, membranes
Sequence (Q63931 1-430): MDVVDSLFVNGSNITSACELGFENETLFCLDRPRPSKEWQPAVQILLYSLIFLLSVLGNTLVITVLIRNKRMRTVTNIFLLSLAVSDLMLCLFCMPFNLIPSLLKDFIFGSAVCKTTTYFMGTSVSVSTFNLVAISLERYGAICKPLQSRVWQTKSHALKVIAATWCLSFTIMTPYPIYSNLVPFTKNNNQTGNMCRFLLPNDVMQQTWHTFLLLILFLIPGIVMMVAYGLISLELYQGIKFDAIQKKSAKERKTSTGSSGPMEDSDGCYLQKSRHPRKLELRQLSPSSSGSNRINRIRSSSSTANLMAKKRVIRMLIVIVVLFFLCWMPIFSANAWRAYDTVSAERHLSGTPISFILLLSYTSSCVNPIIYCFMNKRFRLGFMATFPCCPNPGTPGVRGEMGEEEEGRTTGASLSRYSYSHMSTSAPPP
Experiment: Radioligand binding, [^125 I]-BH-CCK8, Type-A CCK receptor (pancreatic membranes)
Parameters: species or system guinea pig
Reply numerically in nM, unit not repeated.

Please report the recorded IC50 for CCCCCN(CCCCC)C(=O)[C@@H](CC(=O)O)NC(=O)c1cc2ccccc2[nH]1 [Example 19] .
27

Can you share its IC50? I mean this molecule: CCCCCN(CCCCC)C(=O)[C@@H](CC(=O)OCc1ccccc1)NC(=O)c1cc2ccccc2[nH]1 [Example 18]
820

// IC50 lookup, key: O=C(O)CC[C@@H](NC(=O)c1cc2ccccc2[nH]1)C(=O)N(c1ccccc1)c1ccccc1 [Example 74]
210

What IC50 value was documented for this molecule, CCCCCN(CCCCC)C(=O)[C@@H](CCC(=O)O)NC(=O)c1cc2ccccc2[nH]1 [Example 4] ?
20

====

Provide the reported pIC50 of each item.
Target: Type-A CCK receptor (Cavia porcellus, UniProt Q63931)
Construct: cortex and pancreas were removed and rinsed with ice cold saline; from tissue; host or cells: guinea pig pancreas, membranes
Experiment: Radioligand binding, [^125 I]-BH-CCK8, Type-A CCK receptor (pancreatic membranes)
Parameters: species or system guinea pig
The value called pIC50 is obtained by taking minus log10 of the concentration in mol/L.

Could you share what pIC50 was measured for CCCCCN(CCCCC)C(=O)[C@@H](CCC(=O)O)NC(=O)c1cc2ccccc2n1C [Example 60] , tested on Type-A CCK receptor (Cavia porcellus, UniProt Q63931)?
7.47

Notebook: pull reported pIC50 for Type-A CCK receptor (Cavia porcellus, UniProt Q63931), entry COC(=O)[C@@H](NC(=O)[C@@H](CCC(=O)O)NC(=O)c1ccc2ccccc2c1)c1ccccc1 [Example 89]
6.85

Recorded pIC50 for CCCCCN(CCCCC)C(=O)[C@@H](CCC(=O)O)NC(=O)c1ccc2ccccc2n1 [Example 6] with Type-A CCK receptor (Cavia porcellus, UniProt Q63931), please?
7.21

Missing value: pIC50, Type-A CCK receptor (Cavia porcellus, UniProt Q63931), entry CCCCCN(CCCCC)C(=O)[C@@H](CCC(=O)OC)NC(=O)c1cc2ccccc2[nH]1 [Example 23] . Fill in?
7.01

For the record CCOC(=O)CN(CC(=O)OCC)C(=O)[C@@H](CCC(=O)O)NC(=O)c1cnc2ccccc2c1 [Example 107] , what value of pIC50 is listed for Type-A CCK receptor (Cavia porcellus, UniProt Q63931)?
6.96

Any idea what pIC50 came out for CCOC(=O)CN(Cc1ccccc1)C(=O)[C@@H](CCC(=O)O)NC(=O)c1cnc2ccccc2c1 [Example 83] on Type-A CCK receptor (Cavia porcellus, UniProt Q63931)?
7.36

====

Biological target: Type-A CCK receptor (Cavia porcellus)
Construct: cortex and pancreas were removed and rinsed with ice cold saline; from tissue; host or cells: guinea pig pancreas, membranes
Sequence (Q63931 1-430): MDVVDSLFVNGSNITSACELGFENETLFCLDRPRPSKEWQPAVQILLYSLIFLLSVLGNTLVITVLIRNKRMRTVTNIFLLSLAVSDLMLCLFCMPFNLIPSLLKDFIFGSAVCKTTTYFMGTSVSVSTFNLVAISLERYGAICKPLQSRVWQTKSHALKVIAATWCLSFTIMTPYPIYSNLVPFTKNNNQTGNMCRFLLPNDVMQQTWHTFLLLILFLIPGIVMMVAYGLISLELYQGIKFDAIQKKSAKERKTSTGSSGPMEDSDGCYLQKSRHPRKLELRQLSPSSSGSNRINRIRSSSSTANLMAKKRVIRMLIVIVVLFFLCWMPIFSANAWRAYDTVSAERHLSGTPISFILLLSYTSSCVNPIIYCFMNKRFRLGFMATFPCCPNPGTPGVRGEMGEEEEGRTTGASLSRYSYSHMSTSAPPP
Assay: Radioligand binding, [^125 I]-BH-CCK8, Type-A CCK receptor (pancreatic membranes)
Set-up: species or system guinea pig
Details: guinea pig pancreatic membranes, 37° C., 30 min; IC50 from Hill analysis
Property measured: pIC50
Notebook: values listed as pIC50 are -log10 of the concentration (mol/L).

Any idea what pIC50 was measured for CCCCCN(CCCCC)C(=O)[C@H](CCC(=O)O)NC(=O)c1cc2ccccc2[nH]1 [Example 8] ?
6.70

Look up pIC50 for this molecule: CCOC(=O)CN(CC(=O)OCC)C(=O)[C@@H](CCC(=O)O)NC(=O)c1cc(O)c2cccc(O)c2n1 [Example 109]
7.25

Param item = CCCCCN(CCCCC)C(=O)[C@@H](CCC(=O)O)NC(=O)c1c[nH]c2ccccc12 [Example 12] ; retrieve measured pIC50.
6.59

====

For each record, write down the corresponding IC50.
Molecular target: Type-A CCK receptor (Cavia porcellus)
Construct: cortex and pancreas were removed and rinsed with ice cold saline; from tissue; host or cells: guinea pig pancreas, membranes
Sequence (Q63931 1-430): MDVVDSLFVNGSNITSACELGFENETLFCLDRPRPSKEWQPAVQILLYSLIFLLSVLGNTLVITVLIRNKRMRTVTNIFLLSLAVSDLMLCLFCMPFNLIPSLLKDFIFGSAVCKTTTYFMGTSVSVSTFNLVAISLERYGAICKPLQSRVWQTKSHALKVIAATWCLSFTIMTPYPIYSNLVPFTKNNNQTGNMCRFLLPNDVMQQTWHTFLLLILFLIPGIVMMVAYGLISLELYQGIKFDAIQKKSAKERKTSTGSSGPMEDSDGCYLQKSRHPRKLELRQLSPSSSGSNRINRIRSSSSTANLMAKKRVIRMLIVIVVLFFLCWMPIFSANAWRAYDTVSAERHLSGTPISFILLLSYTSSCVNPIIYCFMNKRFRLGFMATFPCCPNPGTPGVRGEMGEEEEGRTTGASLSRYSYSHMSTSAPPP
Experiment: Radioligand binding, [^125 I]-BH-CCK8, Type-A CCK receptor (pancreatic membranes)
Set-up: species or system guinea pig
Experimental: CCK8 [Asp-Tyr(SO3 H)-Met-Gly-Trp-Met-Asp-Phe-NH2 ] was purchased from Beckman Instruments (Palo Alto, Ca/) and Peptide International (Louisville, Ky.). Chymostatin, L-Try-Gly, puromycin, bestatin, EGTA, HEPES and BSA were purchased from Sigma Chemical Co. (St. Louis, Mo.). […] ^125 I]Bolton-Hunter CCK8, and test compounds were diluted with HEPES-EGTA-salt buffer (see above) containing 0.5% bovine serum albumin (BSA). […] IC50 's were determined from the Hill analysis.
Write the numeric value and follow it with the unit.

Query: IC50; subject: COC(=O)[C@@H](NC(=O)[C@@H](CCC(=O)O)NC(=O)c1cc(O)c2cccc(O)c2n1)c1ccccc1 [Example 93]
100 nM

What measured IC50 goes with CCCCCN(CCCCC)C(=O)[C@@H](CCC(N)=O)NC(=O)c1cc2ccccc2[nH]1 [Example 22] ?
97 nM

Request the reported IC50 associated with O=C(O)CC[C@@H](NC(=O)c1cc2ccccc2[nH]1)C(=O)NC12CC3CC(CC(C3)C1)C2 [Example 54]
660 nM

Request the reported IC50 associated with CCCCCN(CCCCC)C(=O)[C@@H](CCC(=O)O)NC(=O)c1ccc2ncccc2c1 [Example 34]
30 nM

Request the reported IC50 associated with O=C(O)CC[C@@H](NC(=O)c1cc2ccccc2[nH]1)C(=O)N(Cc1ccccc1)Cc1ccccc1 [Example 29]
30 nM

Looking for the measured IC50 of CCCCCN(CCCCC)C(=O)[C@@H](CCC(=O)OCc1ccccc1)NC(=O)c1cc2ccccc2[nH]1 [Example 3] , can you help?
240 nM

Reported IC50 for O=C(O)CC[C@@H](NC(=O)c1cc2ccccc2[nH]1)C(=O)Nc1ccccc1-c1ccccc1 [Example 38] : what is it?
900 nM

What value of measured IC50 is listed for COC(=O)[C@@H](NC(=O)[C@@H](CCC(=O)O)NC(=O)c1cc2ccccc2[nH]1)c1ccccc1 [Example 37] ?
49 nM
